- Tested on: EB formation (bupropion carbonyl reduction); carbonyl reductase (menadione), aldo-ketoreductase (flufenamic acid)
- measurement_protocol: in vitro
- experimental_context: baboon (Papio cynocephalus), placental microsomes, probe bupropion 30 µM (≈Km)
endpoint_name: inhibition at 40 min (%)
Your answer should be a plain number; it is taken to be in %.

Kindly note the recorded inhibition at 40 min for O=C(O)c1ccccc1Nc1cccc(C(F)(F)F)c1 [flufenamic acid] , which is 40

---

- subject_of_test: carbonyl-reducing enzymes of baboon placental microsomes
- Type: biochemical
- experimental_context: read-out: IC50 (TB formation, placental microsomes)
endpoint_name: IC50 (nM)
Your answer should be a plain number; it is taken to be in nM.

Let me check: CC1(C)[C@@H](O)CC[C@]2(C)[C@H]3C(=O)C=C4[C@@H]5C[C@@](C)(C(=O)O)CC[C@]5(C)CC[C@@]4(C)[C@]3(C)CC[C@@H]12 , system carbonyl-reducing enzymes of baboon placental microsomes, measured IC50 is 25

Where do the numbers come from? From paper PMC3124571.
